Origin of measurements: ChEMBL document CHEMBL3994622

- Tested on: U-251
- test description: Growth inhibition of human U251 cells incubated for 48 hrs by sulforhodamine B assay
- Type: functional
- run parameters: U-251, 48 h
Mark class 1 only when GI50 stays strictly below 2000 nM. Values equal to the cut-off are class 0.

Study these solved cases before continuing.
| smi | class assignment |
| --- | --- |
| COc1cc2cc(Oc3ccc(NC(=O)Nc4cccc(C(F)(F)F)c4)cc3)c(C)nc2cc1OC | class 1 |
| Cc1nc2cc(O)c(O)cc2cc1Oc1ccc(NC(=O)Nc2ccc(Cl)c(Cl)c2)cc1 | class 0 |
| COc1cc2cc(Oc3ccc(NC(=O)Nc4cc(C(F)(F)F)cc(C(F)(F)F)c4)cc3)c(C)nc2cc1OC | class 1 |

Incoming: Item COc1cc2cc(Oc3ccc(NC(=O)Nc4ccc(Cl)c(Cl)c4)cc3)c(C)nc2cc1OC : GI50 beneath 2000 nM, strictly?
Outgoing: class 0

Incoming: Item COc1cc2cc(Oc3ccc(NC(=O)Nc4ccc(Cl)c(C(F)(F)F)c4)cc3)c(C)nc2cc1OC : GI50 beneath 2000 nM, strictly?
Outgoing: class 1

* * *

- Tested on: M14
- test description: Growth inhibition of human M14 cells incubated for 48 hrs by sulforhodamine B assay
- Type: functional
- run parameters: M14, 48 h, read-out: LC50 (the source's name)
Mark condition met only when CC50 stays strictly below 30 µM. Values equal to the cut-off are condition not met.

| smi | class assignment |
| --- | --- |
| Cc1nc2cc(O)c(O)cc2cc1Oc1ccc(NC(=O)Nc2ccc(Cl)c(Cl)c2)cc1 | condition not met |
| COc1cc2cc(Oc3ccc(NC(=O)Nc4ccc(Cl)c(Cl)c4)cc3)c(C)nc2cc1OC | condition not met |
| COc1cc2cc(Oc3ccc(NC(=O)Nc4cc(C(F)(F)F)cc(C(F)(F)F)c4)cc3)c(C)nc2cc1OC | condition met |

Incoming: Item COc1cc2cc(Oc3ccc(NC(=O)Nc4ccc(Cl)c(C(F)(F)F)c4)cc3)c(C)nc2cc1OC : CC50 beneath 30 µM, strictly?
Outgoing: condition met

Incoming: Item COc1cc2cc(Oc3ccc(NC(=O)Nc4cccc(C(F)(F)F)c4)cc3)c(C)nc2cc1OC : CC50 beneath 30 µM, strictly?
Outgoing: condition not met

* * *

- Test system: PC-3
- test description: Growth inhibition of human PC3 cells incubated for 48 hrs by sulforhodamine B assay
- Assay type: functional
- run parameters: PC-3, 48 h
Consider the following compounds and their measured GI50 readings.
Answer with a number only, understood to be in nM.

Past entries and their recorded results:
| compound | unit symbol | GI50 |
| --- | --- | --- |
| Cc1nc2cc(O)c(O)cc2cc1Oc1ccc(NC(=O)Nc2ccc(Cl)c(Cl)c2)cc1 | nM | 4360 |
| CNC(=O)c1cc(Oc2ccc(NC(=O)Nc3ccc(Cl)c(C(F)(F)F)c3)cc2)ccn1 [SORAFENIB] | nM | 2000 |
| COc1cc2cc(Oc3ccc(NC(=O)Nc4cccc(C(F)(F)F)c4)cc3)c(C)nc2cc1OC | nM | 1390 |

Incoming: Short answer please: GI50, PC-3, entry COc1cc2cc(Oc3ccc(NC(=O)Nc4ccc(Cl)c(Cl)c4)cc3)c(C)nc2cc1OC
Outgoing: 1530

Incoming: Short answer please: GI50, PC-3, entry COc1cc2cc(Oc3ccc(NC(=O)Nc4cc(C(F)(F)F)cc(C(F)(F)F)c4)cc3)c(C)nc2cc1OC
Outgoing: 420

Incoming: Short answer please: GI50, PC-3, entry COc1cc2cc(Oc3ccc(NC(=O)Nc4ccc(Cl)c(C(F)(F)F)c4)cc3)c(C)nc2cc1OC
Outgoing: 781
